We begin with Ki values for Cannabinoid receptor 2 (Homo sapiens), as collected from the published literature.
Give bare numbers, in µM.

Worked cases, Ki given:
[
  {
    "COMPOUND": "CCCCNC(=O)N1CCC(NC(=O)c2nn(-c3ccc(Cl)cc3Cl)c(-c3ccc(Cl)cc3)c2C)CC1",
    "NUMERIC_READOUT": 8.72
  },
  {
    "COMPOUND": "Cc1c(C(=O)NC[C@H]2CC[C@@H](CNS(N)(=O)=O)CC2)nn(-c2ccc(Cl)cc2Cl)c1-c1ccc(Cl)cc1",
    "NUMERIC_READOUT": 1.79
  },
  {
    "COMPOUND": "CCOC(=O)N1CCC(NC(=O)c2nn(-c3ccc(Cl)cc3Cl)c(-c3ccc(Cl)cc3)c2C)CC1",
    "NUMERIC_READOUT": 3
  },
  {
    "COMPOUND": "CCOC(=O)N1CCN(C(=O)c2cc(-c3ccccc3Cl)nn2-c2ccc(C)cc2C)CC1",
    "NUMERIC_READOUT": 1.07
  },
  {
    "COMPOUND": "COc1ccccc1CNC(=O)c1oc2ccc(S(=O)(=O)N3CC(C)CC(C)C3)cc2c1C (stereo not drawn)",
    "NUMERIC_READOUT": 22.8
  },
  {
    "COMPOUND": "Cc1ccc(-c2n[nH]c(C(C)(C)C)n2)cc1S(=O)(=O)N1CCOCC1",
    "NUMERIC_READOUT": 0.1
  }
]

Hello, I would appreciate it if you could give Ki for each entry below.
1. Cc1c(C(=O)NN2CC3CCCC3C2)nc(-c2ccc(Cl)cc2Cl)n1-c1ccc(Cl)cc1 (stereo not drawn)
2. CCCNC(=O)N1CCC[C@@H](NC(=O)c2nn(-c3ccc(Cl)cc3Cl)c(-c3ccc(Cl)cc3)c2C)C1
3. CCCNC(=O)NC1CCN(c2ncnc3c2nc(-c2ccccc2Cl)n3-c2ccc(Cl)cc2)CC1
4. O=C(NC1CCN(c2ncnc3c2nc(-c2ccccc2Cl)n3-c2ccc(Cl)cc2)CC1)C1CCCC1
5. O=C(NC1CCCCC1)c1cn(-c2ccc(Cl)cc2)c(-c2ccccc2Cl)n1

1.41
3.09
0.153
0.0602
2.3

Hello, I would appreciate it if you could give Ki for each entry below.
1. CCCCNC(=O)N1CCC[C@@H](NC(=O)c2nn(-c3ccc(Cl)cc3Cl)c(-c3ccc(Cl)cc3)c2C)C1
2. O=C(NCc1cccnc1)c1ccc(Br)c(S(=O)(=O)N2CCCCC2)c1
3. CO/N=C(\c1ccc([C@H](C)NS(C)(=O)=O)cc1)c1ccc(Cl)cc1S(=O)(=O)c1ccc(Cl)cc1

[3.03, 0.32, 0.406]
